Consider the following molecules and their measured pIC50 readings.
tgt: neuronal nicotinic receptors (α4β2 subtype high affinity site) (Rattus norvegicus, UniProt P09483+P12390)
Construct: The forebrain (÷cerebellum) from a male Wistar rat (150-250 g) is homogenized; from tissue; host or cells: rat forebrain (without cerebellum) membrane homogenate
Sequence (P09483 31-630): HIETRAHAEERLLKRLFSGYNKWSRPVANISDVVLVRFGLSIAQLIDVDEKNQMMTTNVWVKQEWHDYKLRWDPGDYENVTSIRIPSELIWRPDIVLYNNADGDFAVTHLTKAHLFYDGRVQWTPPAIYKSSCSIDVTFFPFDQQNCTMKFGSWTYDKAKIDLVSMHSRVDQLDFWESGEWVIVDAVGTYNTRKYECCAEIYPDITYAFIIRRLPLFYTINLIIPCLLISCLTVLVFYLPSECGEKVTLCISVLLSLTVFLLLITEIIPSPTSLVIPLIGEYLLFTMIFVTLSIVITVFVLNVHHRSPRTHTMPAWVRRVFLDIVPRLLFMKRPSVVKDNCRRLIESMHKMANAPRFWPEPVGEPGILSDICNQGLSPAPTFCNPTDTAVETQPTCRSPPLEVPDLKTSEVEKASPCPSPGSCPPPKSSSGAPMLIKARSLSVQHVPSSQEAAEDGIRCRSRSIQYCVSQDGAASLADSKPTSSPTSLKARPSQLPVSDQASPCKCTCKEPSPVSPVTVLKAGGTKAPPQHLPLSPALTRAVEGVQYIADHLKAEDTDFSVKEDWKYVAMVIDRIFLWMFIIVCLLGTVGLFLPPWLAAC
Sequence (P12390 25-500): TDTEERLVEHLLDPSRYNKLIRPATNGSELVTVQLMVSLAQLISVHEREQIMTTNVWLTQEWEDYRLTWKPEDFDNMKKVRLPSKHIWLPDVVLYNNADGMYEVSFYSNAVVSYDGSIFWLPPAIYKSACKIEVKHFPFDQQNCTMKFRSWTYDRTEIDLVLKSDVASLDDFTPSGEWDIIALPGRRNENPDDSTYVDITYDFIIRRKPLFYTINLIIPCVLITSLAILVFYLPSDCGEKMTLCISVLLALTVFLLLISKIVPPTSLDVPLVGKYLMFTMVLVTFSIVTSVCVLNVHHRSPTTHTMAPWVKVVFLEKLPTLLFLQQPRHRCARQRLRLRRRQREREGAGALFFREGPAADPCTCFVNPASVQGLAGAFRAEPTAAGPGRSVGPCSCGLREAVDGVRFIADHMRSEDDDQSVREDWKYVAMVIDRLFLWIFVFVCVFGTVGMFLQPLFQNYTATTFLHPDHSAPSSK
assay: In vitro inhibition of 3H-epibatidin binding
conditions: rat forebrain homogenate, 0.3 nM 3H-epibatidin, 60 min at room temperature; read-out: 3H-epibatidin IC50
Entry type: numeric. Quantity: pIC50, the -log10 of concentration in molar units.

The examples below pair each entry with its known result.
COCCOc1cncc(N2CCCN(C)CC2)c1 [Compound 7E]
6.26
COc1cncc(N2CCN(C)CC2)c1 [Compound 3A]
6.42

Ask: State, in one line, measured pIC50 of CN1CCCN(c2cncc(OC3CCCC3)c2)CC1 [Compound 25E]
Result: 6.21

Ask: State, in one line, measured pIC50 of CCCCOc1cncc(N2CCCN(C)CC2)c1 [Compound 6E]
Result: 6.62
